Tested on: Ctenocephalides felis
Experiment: flea membrane feed test
Details: in vitro, adult cat fleas fed 2 hours through parafilm membrane on citrated dog blood containing compound; percentage killed recorded after overnight storage; dose responses n=5
readout-name: Flea feed ED80 results

| compound | measured |
| --- | --- |
| N#Cc1nn(-c2c(Cl)cc(S(F)(F)(F)(F)F)cc2Cl)c(N)c1C1(C#N)CC1 [Example 11] | ≦1 μg/ml |
| N#Cc1nn(-c2c(Cl)cc(S(F)(F)(F)(F)F)cc2Cl)c(NCCC(N)=O)c1C1(C(N)=O)CC1 [Example 32] | ≦1 μg/ml |
| N#Cc1nn(-c2c(Cl)cc(S(F)(F)(F)(F)F)cc2Cl)c(CNC(=O)OCC2CC2)c1C1(C(N)=O)CC1 [Example 101] | ≦1 μg/ml |
| N#Cc1nn(-c2c(Cl)cc(S(F)(F)(F)(F)F)cc2Cl)c(NCC2CC2)c1C1(C(=O)NCc2ccccn2)CC1 [Example 45] | ≦1 μg/ml |
